Assay: Hygroscopic properties of drugs and excipients (saturation limits, i coefficients, hygroscopic parameter)
Format: physicochemical
Conditions: mass fraction that can be dissolved in liquid water at 25° C.
Outcome measure: Saturated mass fraction (mfsat)
Enter the number alone.

Data request: Input CC(O)CO (stereo not shown) , output reported Saturated mass fraction (mfsat).
Data returned: 1.00

Data request: Input OC[C@@H](O)[C@@H](O)[C@H](O)[C@H](O)CO , output reported Saturated mass fraction (mfsat).
Data returned: 0.15

Data request: Input [Cl-].[Na+] [Sodium chloride (NaCl), Sodium chloride] , output reported Saturated mass fraction (mfsat).
Data returned: 0.265

Data request: Input O=C(O)CC(O)(CC(=O)O)C(=O)O , output reported Saturated mass fraction (mfsat).
Data returned: 0.57
